Hey, just so you know, these numbers are from patent US20230114728A1.

System: E. coli ATCC 25922
procedure-text: Broth microdilution MIC in CAMHB
Type: cell-based
cond: Escherichia coli, ATCC25922; E. coli ATCC 25922; MHB; read-out: Minimum Inhibitory Concentration, E. coli 25922
The following compounds are shown together with reported MIC values.

// worked examples, MIC included
Quick note, MIC for NC1(CN2CCN(C(=O)NC(C(=O)N[C@H]3Cc4cccc(C(=O)O)c4OB3O)c3cccc(NS(N)(=O)=O)c3)C(=O)C2=O)CC1 (stereo partly drawn) landed at > 128 µg/mL

MIC in this record for NCCN1CCN(C(=O)NC(C(=O)N[C@H]2Cc3cccc(C(=O)O)c3OB2O)c2cc(F)c(O)c(Cl)c2)C(=O)C1=O (stereo partly drawn) : 32 to 64 µg/mL

Consider now this further compound.
MIC reported for this compound NCCN1CCN(C(=O)N[C@H](C(=O)N[C@H]2Cc3ccc(F)c(C(=O)O)c3OB2O)c2c(F)cc(O)cc2F)C(=O)C1=O (single isomer, unassigned) : 32 to 64 µg/mL

* * *

System: N. gonorrhoeae H041
procedure-text: Liquid broth MIC in Fastidious broth
Assay type: cell-based
cond: Neisseria gonorrhoeae, H041, read-out: Minimum Inhibitory Concentration, N. gonorrhoeae H041
endpoint-name: MIC

compound CCN1CCN(C(=O)NC(C(=O)N[C@H]2Cc3cccc(C(=O)O)c3OB2O)c2ccc(O)cc2OC)C(=O)C1=O (stereo partly shown) , MIC observed: > 64 µg/mL

Measured MIC, NCCCN1CCN(C(=O)N[C@@H](C(=O)N[C@H]2Cc3cccc(C(=O)O)c3OB2O)c2cccc(NS(N)(=O)=O)c2)C(=O)C1=O : > 64 µg/mL

* * *

Measured MIC values are reported for all entries that follow.
Tested on: P. aeruginosa ATCC 35151
procedure-text: Broth microdilution MIC in CAMHB
Type: cell-based
cond: Pseudomonas aeruginosa, ATCC35151; MHB; hyper-permeable strain; read-out: Minimum Inhibitory Concentration, P. aeruginosa ATCC 35151

Lab note: CCN1CCN(C(=O)NC(C(=O)N[C@H]2Cc3ccc(SC)c(C(=O)O)c3OB2O)c2csc(N)n2)C(=O)C1=O (stereo partly drawn) gave MIC of 0.5 to 1 mg/L

The value of MIC measured for the molecule CCN1CCN(C(=O)N[C@H](C(=O)N[C@H]2Cc3cccc(C(=O)O)c3OB2O)c2nc(Cl)c(C(=O)O)cc2F)C(=O)C1=O turned out to be 0.5 to 1 mg/L

CCN1CCN(C(=O)NC(C(=O)N[C@H]2Cc3cccc(C(=O)O)c3OB2O)c2cccc(N)c2)C(=O)C1=O (stereo partly drawn) has a reported MIC of 2 to 4 mg/L

Form field MIC, entry NCCCN1CCN(C(=O)N[C@@H](C(=O)N[C@H]2Cc3cccc(C(=O)O)c3OB2O)c2cc(F)c(O)c(F)c2F)C(=O)C1=O (single isomer, unassigned) : 0.5 to 1 mg/L

// field: MIC; key: CCN1CCN(C(=O)NC(C(=O)N[C@H]2Cc3cccc(C(=O)O)c3OB2O)c2cc(NS(N)(=O)=O)ccc2F)C(=O)C1=O (stereo partly drawn) ; value = < 0.25 mg/L

// recorded MIC for NCCN1CCN(C(=O)NC(C(=O)N[C@H]2Cc3cccc(C(=O)O)c3OB2O)c2cc(F)c(O)cc2Cl)C(=O)C1=O (stereo partly drawn) : 2 to 4 mg/L

***
The molecule NCCN1CCN(C(=O)N[C@H](C(=O)N[C@H]2Cc3cccc(C(=O)O)c3OB2O)c2cc(Cl)c(O)c(Cl)c2)C(=O)C1=O (single isomer, unassigned) showed MIC equal to 0.5 to 1 mg/L

# MIC (molecule: NCCN1CCN(C(=O)N[C@H](C(=O)N[C@H]2Cc3cccc(C(=O)O)c3OB2O)c2c(F)cccc2F)C(=O)C1=O (single isomer, unassigned) ) is 32 to 64 mg/L

Value of measured MIC for the entry O=C(O)c1cccc2c1OB(O)[C@@H](NC(=O)C(NC(=O)N1CCN(CCBr)C(=O)C1=O)c1ccc(O)c(F)c1F)C2 (stereo partly drawn) : 0.5 to 1 mg/L

The molecule identified as O=C(O)c1c(F)ccc2c1OB(O)[C@@H](NC(=O)C(NC(=O)N1CCN(CCF)C(=O)C1=O)c1c(F)cc(O)cc1F)C2 (stereo partly drawn) registered its MIC at 0.5 to 1 mg/L

Noted for CCN1CCN(C(=O)N[C@H](C(=O)N[C@H]2Cc3cccc(C(=O)O)c3OB2O)c2ccc(C(=O)O)c(F)c2)C(=O)C1=O (single isomer, unassigned) : its MIC reads < 0.25 mg/L

Entry NC1(CN2CCN(C(=O)N[C@@H](C(=O)N[C@H]3Cc4cccc(C(=O)O)c4OB3O)c3ccc(O)c(F)c3F)C(=O)C2=O)CC1 (single isomer, unassigned) , MIC reported as < 0.25 mg/L
